The following compounds are shown together with reported Tmax values.
# assay: in vivo
# condition.set: female, Han Wistar, rat, po, 5 mg/kg
Give your result in h as a bare value.

[2H]c1cc([2H])c(-c2ccc(NC(=O)C3=C(C(=O)O)CCC3)c(F)c2)c([2H])c1OC([2H])([2H])[2H] : 2
[2H]C([2H])([2H])Oc1cccc(-c2ccc(NC(=O)C3=C(C(=O)O)CCC3)c(F)c2)c1 : 2

Prompt: Return reported Tmax. Input compound: COc1cccc(-c2ccc(NC(=O)C3=C(C(=O)O)CCC3)c(F)c2)c1 [Example C26, vidofludimus, reference compound]
Response: 2

---

The following molecules are shown together with reported bioavailability values.
# assay: in vivo
# condition.set: male, Han Wistar, rat, po
Give your result in % as a bare value.

[2H]C([2H])([2H])Oc1cccc(-c2ccc(NC(=O)C3=C(C(=O)O)CCC3)c(F)c2)c1 : 86
COc1cccc(-c2ccc(NC(=O)C3=C(C(=O)O)CCC3)c(F)c2)c1 [Example C26, vidofludimus, reference compound] : 92.7

Then this molecule:
Prompt: Return reported bioavailability. Input molecule: `[2H]c1cc([2H])c(-c2ccc(NC(=O)C3=C(C(=O)O)CCC3)c(F)c2)c([2H])c1OC([2H])([2H])[2H]`
Response: 100

---

# assay: in vivo
# condition.set: male, Han Wistar, rat, iv, 1 mg/kg
The following molecules are shown together with reported AUC(0-t) values.
Give your result in ng·h/mL as a bare value.

[2H]C([2H])([2H])Oc1cccc(-c2ccc(NC(=O)C3=C(C(=O)O)CCC3)c(F)c2)c1 [Example 1] : 42600

Prompt: Return reported AUC(0-t). Input molecule: COc1cccc(-c2ccc(NC(=O)C3=C(C(=O)O)CCC3)c(F)c2)c1 [Example C26, vidofludimus, reference compound]
Response: 43200

Prompt: Return reported AUC(0-t). Input molecule: [2H]c1cc([2H])c(-c2ccc(NC(=O)C3=C(C(=O)O)CCC3)c(F)c2)c([2H])c1OC([2H])([2H])[2H] [Example 2]
Response: 40400

---

# assay: in vivo
# condition.set: male, CC7BL/6J, mouse, po, 5 mg/kg
The following compounds are shown together with reported Cmax values.
Please provide the amount together with its unit, number first.

[2H]C([2H])([2H])Oc1cccc(-c2ccc(NC(=O)C3=C(C(=O)O)CCC3)c(F)c2)c1 : 4110 ng/mL

Prompt: Return reported Cmax. Input compound: COc1cccc(-c2ccc(NC(=O)C3=C(C(=O)O)CCC3)c(F)c2)c1 [Example C26, vidofludimus, reference compound]
Response: 789 ng/mL

---

# assay: in vivo
# condition.set: male, Han Wistar, rat, iv, 1 mg/kg
assay.readout: C0 (µg/mL)
Give your result in µg/mL as a bare value.

Consider the reported C0 for these compounds:
[2H]C([2H])([2H])Oc1cccc(-c2ccc(NC(=O)C3=C(C(=O)O)CCC3)c(F)c2)c1 : 5.54
[2H]c1cc([2H])c(-c2ccc(NC(=O)C3=C(C(=O)O)CCC3)c(F)c2)c([2H])c1OC([2H])([2H])[2H] : 5.31

Prompt: Return reported C0. Input compound: COc1cccc(-c2ccc(NC(=O)C3=C(C(=O)O)CCC3)c(F)c2)c1 [Example C26, vidofludimus, reference compound]
Response: 5.79

---

# assay: in vitro
# condition.set: male, rat, microsomes
The following molecules are shown together with reported microsomal CLint values.
Please provide the amount together with its unit, number first.

COc1cccc(-c2ccc(NC(=O)C3=C(C(=O)O)CCC3)c(F)c2)c1 [Example C26, vidofludimus, reference compound] : 8.48 µL/min/mg

Then this molecule:
Prompt: Return reported microsomal CLint. Input molecule: [2H]C([2H])([2H])Oc1cccc(-c2ccc(NC(=O)C3=C(C(=O)O)CCC3)c(F)c2)c1 [Example 1]
Response: 13.4 µL/min/mg

---

# assay: in vivo
# condition.set: female, CC7BL/6J, mouse, po, 5 mg/kg
assay.readout: half-life (h)
Give your result in h as a bare value.

[2H]C([2H])([2H])Oc1cccc(-c2ccc(NC(=O)C3=C(C(=O)O)CCC3)c(F)c2)c1 [Example 1] : 1.6

Prompt: Return reported half-life. Input molecule: COc1cccc(-c2ccc(NC(=O)C3=C(C(=O)O)CCC3)c(F)c2)c1 [Example C26, vidofludimus, reference compound]
Response: 1.7

---

# assay: in vivo
# condition.set: female, Han Wistar, rat, iv, 1 mg/kg
assay.readout: AUC(0-t) (ng·h/mL)
Give your result in ng·h/mL as a bare value.

Consider the reported AUC(0-t) for these compounds:
COc1cccc(-c2ccc(NC(=O)C3=C(C(=O)O)CCC3)c(F)c2)c1 [Example C26, vidofludimus, reference compound] : 68600
[2H]C([2H])([2H])Oc1cccc(-c2ccc(NC(=O)C3=C(C(=O)O)CCC3)c(F)c2)c1 : 66200

Then this compound:
Prompt: Return reported AUC(0-t). Input compound: `[2H]c1cc([2H])c(-c2ccc(NC(=O)C3=C(C(=O)O)CCC3)c(F)c2)c([2H])c1OC([2H])([2H])[2H]`
Response: 64700

---

# Tested on: SARS-CoV-2
# assay: Antiviral activity on SARS-CoV-2, viral replication (YFP) assay
# Assay type: cell-based
# condition.set: Severe acute respiratory syndrome coronavirus 2, read-out: EC50 range
assay.readout: EC50

Prompt: Return reported EC50. Input compound: [2H]C([2H])([2H])Oc1cccc(-c2cc(F)c(NC(=O)C3=C(C(=O)O)CCC3)c(F)c2)n1 [1/10]
Response: 10 to 25 µM

Prompt: Return reported EC50. Input compound: [2H]C([2H])([2H])Oc1cccc(-c2ccc(NC(=O)C3=C(C(=O)O)CCC3)c3cnccc23)c1 [12/3]
Response: 25 to 50 µM

Prompt: Return reported EC50. Input compound: [2H]C([2H])([2H])Oc1cccc(-c2cc(F)c(NC(=O)C3=C(C(=O)O)COC3)c(F)c2)c1 [Example 11]
Response: > 50 µM

Prompt: Return reported EC50. Input compound: [2H]c1cc([2H])c(-c2ccc(NC(=O)C3=C(C(=O)O)CCC3)c(F)c2)c([2H])c1O [Example 8]
Response: 25 to 50 µM

---

# assay: in vivo
# condition.set: female, Han Wistar, rat, po, 5 mg/kg
The following compounds are shown together with reported CL/F values.
Give your result in mL/min/kg as a bare value.

Consider the reported CL/F for these compounds:
[2H]c1cc([2H])c(-c2ccc(NC(=O)C3=C(C(=O)O)CCC3)c(F)c2)c([2H])c1OC([2H])([2H])[2H] : 3.5
[2H]C([2H])([2H])Oc1cccc(-c2ccc(NC(=O)C3=C(C(=O)O)CCC3)c(F)c2)c1 : 3.77

Prompt: Return reported CL/F. Input compound: COc1cccc(-c2ccc(NC(=O)C3=C(C(=O)O)CCC3)c(F)c2)c1 [Example C26, vidofludimus, reference compound]
Response: 3.7

---

# assay: in vivo
# condition.set: male, Han Wistar, rat, po, 5 mg/kg
The following molecules are shown together with reported Tmax values.
Give your result in h as a bare value.

Prompt: Return reported Tmax. Input molecule: `[2H]c1cc([2H])c(-c2ccc(NC(=O)C3=C(C(=O)O)CCC3)c(F)c2)c([2H])c1OC([2H])([2H])[2H]`
Response: 2

Prompt: Return reported Tmax. Input molecule: COc1cccc(-c2ccc(NC(=O)C3=C(C(=O)O)CCC3)c(F)c2)c1 [Example C26, vidofludimus, reference compound]
Response: 2

Prompt: Return reported Tmax. Input molecule: `[2H]C([2H])([2H])Oc1cccc(-c2ccc(NC(=O)C3=C(C(=O)O)CCC3)c(F)c2)c1`
Response: 2

---

# assay: in vitro
# condition.set: both, human, microsomes
assay.readout: microsomal CLint (µL/min/mg)
Give your result in µL/min/mg as a bare value.

COc1cccc(-c2ccc(NC(=O)C3=C(C(=O)O)CCC3)c(F)c2)c1 [Example C26, vidofludimus, reference compound] : 2.27
[2H]c1cc([2H])c(-c2ccc(NC(=O)C3=C(C(=O)O)CCC3)c(F)c2)c([2H])c1OC([2H])([2H])[2H] : 0.74

Then this compound:
Prompt: Return reported microsomal CLint. Input compound: `[2H]C([2H])([2H])Oc1cccc(-c2ccc(NC(=O)C3=C(C(=O)O)CCC3)c(F)c2)c1`
Response: 0.96

---

# System: SARS-CoV-2
# assay: Antiviral activity on SARS-CoV-2, viral replication (YFP) assay
# Type: cell-based
# condition.set: Severe acute respiratory syndrome coronavirus 2, read-out: EC50 range
pEC50: −log10 of the molar value.
assay.readout: pEC50

[2H]C([2H])([2H])Oc1cccc(-c2cnc(NC(=O)C3=C(C(=O)O)CCC3)c(F)c2)c1 : > 5.00

Prompt: State pEC50 on SARS-CoV-2. Entry: `[2H]C([2H])([2H])C([2H])([2H])Oc1cccc(-c2cc(F)c(NC(=O)C3=C(C(=O)O)CCC3)c(F)c2)c1`
Response: > 5.00

Prompt: State pEC50 on SARS-CoV-2. Entry: `[2H]c1cc([2H])c(-c2c(F)c(F)c(NC(=O)C3=C(C(=O)O)CCC3)c(F)c2F)c([2H])c1OC(F)(F)F`
Response: > 5.00

Prompt: State pEC50 on SARS-CoV-2. Entry: `[2H]C([2H])([2H])Oc1cccc(-c2cc(F)c(NC(=O)C3=C(C(=O)O)CCC3)c(F)c2)c1`
Response: 4.60 to 5.00

Prompt: State pEC50 on SARS-CoV-2. Entry: `[2H]C([2H])([2H])Oc1cccc(-c2cc(F)c(NC(=O)C3=C(C(=O)O)CSC3)c(F)c2)c1`
Response: 4.60 to 5.00
